Test system: NKL (IL-2 2.5 ng/mL)
test.summary: relative IC50 (inflection point of fitted viability curve, relative to fitted max inhibition); higher = less sensitive
protocol.conditions: 72 h
measured.parameter: relative IC50

Return reported relative IC50; argument: CNC(=O)c1ccccc1Sc1ccc2c(/C=C/c3ccccn3)n[nH]c2c1 0.734 µM

Look up relative IC50 for this molecule: CO[C@@H](C(=O)N1Cc2[nH]nc(NC(=O)c3ccc(N4CCN(C)CC4)cc3)c2C1)c1ccccc1 1.38 µM

Endpoint output: relative IC50 of Nc1nc(Cl)nc2c1ncn2[C@@H]1O[C@H](CO)[C@@H](O)[C@@H]1F . Value? 0.0356 µM

I have this molecule here, CC/C(=C(\c1ccc(O)cc1)c1ccc(OCCN(C)C)cc1)c1ccccc1 [4-hydroxytamoxifen] , and I need its recorded relative IC50. 2.7 µM

For N#CC1(c2ccc(NC(=O)c3cccnc3NCc3ccncc3)cc2)CCCC1 , what is its reported relative IC50? > 10 µM

Please report the recorded relative IC50 for Cn1c(=O)n(-c2ccc(C(C)(C)C#N)cc2)c2c3cc(-c4cnc5ccccc5c4)ccc3ncc21 . 0.0104 µM

Which relative IC50 value belongs to Cn1ncnc1[C@H]1c2n[nH]c(=O)c3cc(F)cc(c23)N[C@@H]1c1ccc(F)cc1 ? 0.0023 µM

For the molecule shown here, CC/C(=C(\c1ccccc1)c1ccc(OCCN(C)C)cc1)c1ccccc1 , give the reported relative IC50. 1.43 µM

Data origin: the supplement of paper PMC5908809
